Measured CC50 values are reported for all entries that follow.
TEST NAME: in vitro
MEASUREMENT SETUP: African green monkey, VeroE6 + CP (CC50), Vero E6-eGFP cells with CP-100356, absence of virus, MTS; class symbols
ENDPOINT NAME: CC50

COMPOUND	ENDPOINT NAME	RESULT
O=C(NCc1ccccc1)C(=O)C(C[C@@H]1CCNC1=O)NC(=O)[C@@H]1[C@H]2CCC[C@H]2CN1C(=O)c1cc2ccccc2[nH]1 (stereo partly drawn)	CC50	> 10 µM
O=C(NCCCC(F)(F)F)C(=O)[C@H](C[C@@H]1CCNC1=O)NC(=O)[C@@H]1[C@H]2CCC[C@H]2CN1C(=O)c1cc2c(Cl)cc(Cl)cc2[nH]1	CC50	> 10 µM
O=C1NCC[C@H]1C[C@H](NC(=O)[C@@H]1[C@H]2CCC[C@H]2CN1C(=O)c1cc2c(OC(F)(F)F)cccc2[nH]1)C(=O)CO	CC50	> 10 µM
CC(C)CCCNC(=O)C(=O)[C@H](C[C@@H]1CCNC1=O)NC(=O)[C@@H]1[C@H]2CCC[C@H]2CN1C(=O)c1cc2c(Cl)cc(Cl)cc2[nH]1	CC50	1 to 10 µM
O=C(NCCOCC1CCCC1)C(=O)[C@H](C[C@@H]1CCNC1=O)NC(=O)[C@@H]1[C@H]2CCC[C@H]2CN1C(=O)c1cc2c(Cl)cc(Cl)cc2[nH]1	CC50	1 to 10 µM
COc1cccc2[nH]c(C(=O)N3C[C@@H]4CCC[C@@H]4[C@H]3C(=O)N[C@@H](C[C@@H]3CCNC3=O)C(=O)c3cnc[nH]3)cc12	CC50	> 10 µM
